test.system: T1, FBXL12, Q9NXK8
T1 chain: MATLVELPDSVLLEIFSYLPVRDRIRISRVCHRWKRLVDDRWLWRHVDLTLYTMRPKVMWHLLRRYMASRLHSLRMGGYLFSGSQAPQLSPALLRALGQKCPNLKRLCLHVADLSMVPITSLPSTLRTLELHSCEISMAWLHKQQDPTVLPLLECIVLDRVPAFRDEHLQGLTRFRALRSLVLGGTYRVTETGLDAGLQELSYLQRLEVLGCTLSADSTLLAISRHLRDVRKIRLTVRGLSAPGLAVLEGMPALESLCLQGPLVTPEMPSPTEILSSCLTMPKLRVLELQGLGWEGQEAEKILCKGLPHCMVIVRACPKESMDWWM
method.notes: median log2 fold change of GCK-ALFA target abundance (FLAG IP / Myc IP barcode read proportion) (log2 ratio); each designed protein is fused to an ALFA-tag nanobody in HEK293 cells to bring the named protein to FLAG-tagged glucokinase (GCK); Myc marks an untargeted standard; higher = target protein stabilised (more abundant)
cond: target protein: 3xFLAG-MCP-GCK-ALFA reporter; HEK293 landing pad (RPLP)
median log2 fold change values, listed per item
attribute.measured: median log2 fold change

>>> experimental_result("FBXL12_hotspot_186_25 (protein) QRIEVRVSFSEDLEQARAGLELAIGLLEALLARGLIESAASLARSTVRAARELAARTDDEEVKRLLAEGLERIAEILRKHPELAEELEEVERAAREIRER")
0.0938
>>> experimental_result("FBXL12_hotspot_35_58 (protein) MRVVVVRFEGSSEEGALYMATAALLAQRVLGARVVVEIHPDESREVRIIAAALRHLAEGLSWEEIREELGLTEEEMERARELAERLRAEVERLAAELRAR")
-0.372
>>> experimental_result("FBXL12_hotspot_28_53 (protein) MKRTVIVRGEPEQVGQQILALLEAITEQAKALKAQLEANKNGDPAVLAELKEKLAKLESILESLKEEAERIRPQLSPELQARIDAAIEAAEKALKAAKAV")
0.0582
>>> experimental_result("FBXL12_hotspot_52_64 (protein) MRTVTIRVRIESPDMAMARRTTETAAAIARGLAAAGVRVVLEVEAAHLEALRFATRELARVAAELGAELRVRVHPSLDPEEVERVYREALAEAEAEAAAA")
-0.455
>>> experimental_result("FBXL12_hotspot_9_120 (protein) RIVVIHEFLESLEDVGPRLTRAVDIAETAADAGWKVILVFSAASPEVAAAARRYLAEELGERVAALEARGAVIRVAESREEAERIKRELLEEALREEDEA")
-0.0369
>>> experimental_result("FBXL12_hotspot_82_99 (protein) SIAIIGLVNRPPETAVASLRNTADTIITLVEGAREAGVEVVRAVLVVHADPETRAEAERLRPRLEAAGVEVHLEATSAAADARAEAIRAAIEARFAAEDA")
0.0901
>>> experimental_result("FBXL12_hotspot_52_65 (protein) MRTVELVLVLQGDDVEAARRLLDRGVAIAEGLKAAGVRVRVVIEYSGSLESVPAVVEAMRRFKALGAEVRVVVSDDPALAEARAALRAAAEELGAEFVVR")
-0.218
>>> experimental_result("FBXL12_hotspot_16_20 (protein) KIMIIRVVAGTEEEARSSVETAKKIAIGLMEAGVDAIILEAIAEKEELLPFLKELVEEKEKELREAAKKYGAKLRILVGTLDDLEELRAQAEAIAAELEA")
-0.134
>>> experimental_result("FBXL12_hotspot_95_101 (protein) MRRVIILVRQAVTAENIESAIQAIERAAAIARGLRAAGVEVKLIVVAHAPDEETRARIEAAVERHRDVIDEFVLEETEEAMEEKAEELLEEALEEIDEAE")
-0.00895
